Recorded endpoint: melting point (°C)

- Molecule: "CC(=O)c1cc(C(C)(C)C)c(O)c(C(C)(C)C)c1"
  Unit abbreviation: "°C"
  Value: 147
- Molecule: "Cc1ccc(C)c2ncccc12"
  Unit abbreviation: "°C"
  Value: 4.5
- Molecule: "CCCC(=O)c1ccccc1"
  Unit abbreviation: "°C"
  Value: 12
- Molecule: "O=CC(C=O)c1ccncc1"
  Unit abbreviation: "°C"
  Value: 320

I = CCS(=O)(=O)c1ccccc1
II = CCC(C)(CC)C(C)(C)C
Identify the entry with the larger melting point. Options: I and II Please indicate the selected item by its label.
I
(I: 42 °C, II: -42.5 °C)
